Experiment: chemical genetic growth profiling, strain panel (AID 1159580);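 note: tested at 20 µM; growth read once vehicle control cultures reached saturation at 30 °C; 1 = growth at the plate median or of vehicle wells; lower values mean less growth of the strain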
Conditions: S. cerevisiae deletion strains, growth OD, locus YOR061W, strain CKA2, stronger effect = lower value
The whole screen tested about 5,500 compounds, of which about 2,000 (36%) were called active. Another 18% or so got no clear call; they are omitted. The list shows a part of the results.
Please respond with reported normalized growth for every item in the list.
Give the value as a plain number.

Req: Value lookup for normalized growth; key = NC[C@@H]1O[C@H](O[C@@H]2[C@@H](CO)OC(O[C@@H]3[C@@H](O)[C@H](N)C[C@H](N)[C@H]3O[C@H]3O[C@H](CO)[C@@H](O)[C@H](O)[C@H]3N)[C@@H]2O)[C@H](N)[C@@H](O)[C@@H]1O (some centres undefined)
Resp: 0.973

Req: What normalized growth value was documented for this compound, N/C(=N/OC(=O)c1cnn(-c2ccc([N+](=O)[O-])cc2)c1C(F)(F)F)c1ccc(Cl)cc1 ?
Resp: 0.912

Req: Using the record for N/C(=N/OC(=O)c1ccc([N+](=O)[O-])cc1)c1c(Cl)cccc1Cl , report its normalized growth.
Resp: 0.919

Req: What measured normalized growth goes with O=C1/C(=C/c2c[nH]c3ccccc23)CSc2ccccc21 ?
Resp: 0.958
